assay: Cytotoxicity, MTT assay; format: cell-based; conditions: human, HaCaT keratinocyte cells, at 50 µg/mL, read-out: cell viability
Property measured: viability at 24 h, 50 µg/mL (%)
One number for each entry, in %.

viability at 24 h, 50 µg/mL reported for this molecule CCCCCCCCCCCCNC(=O)C(N)Cc1ccccc1 (centres unmarked) : 0

----------
Kindly state Selectivity Index (HC50/MIC) for each of the entries shown.
system: Cyberlindnera jadinii ATCC 60459 (C. jardinii); assay: MIC broth microdilution; assay type: cell-based; details: C. jardini; Table S1
Numbers only.

CCCCCCCCCCCCNC(=O)C(N)Cc1ccccc1 (stereo not shown) [PNHC12] = 0.6
CCCCCCCCCCCC(=O)NC(CCCNC(=N)N)C(=O)OC (stereo not shown) [C12AM] = 1.7
CCCCCCCCCCCCNC(=O)C(CCCNC(=N)N)NC(=O)C(N)Cc1ccccc1 (stereo not shown) [PANHC12] = 0.8

For reference, reported Selectivity Index (HC50/MIC) for CCCCCCCCCCCCNC(=O)C(CCCNC(=N)N)NC(=O)C(N)Cc1c[nH]c2ccccc12 (stereo not shown) [TANHC12] stands at 0.25

----------
For each record, write down the corresponding γc (surface tension at the cmc).
experiment: Surface tension, pendant drop tensiometer (cmc, γc); type: physicochemical
One number for each entry, in mNm^−1.

Examples with their reported γc (surface tension at the cmc) follow.
CCCCCCCCCCNC(=O)C(CCCNC(=N)N)NC(=O)C(N)Cc1c[nH]c2ccccc12 (centres unmarked) = 30.6
CCCCCCCCCCCCNC(=O)C(CCCNC(=N)N)NC(=O)C(N)Cc1c[nH]c2ccccc12 (centres unmarked) = 28.7
CCCCCCCCCCCCCCNC(=O)C(CCCNC(=N)N)NC(=O)C(N)Cc1c[nH]c2ccccc12 (centres unmarked) = 32.8
CCCCCCCCCCNC(=O)C(CCCNC(=N)N)NC(=O)C(N)Cc1ccccc1 (centres unmarked) = 30.6

γc (surface tension at the cmc) recorded for this compound, CCCCCCCCCCCCNC(=O)C(N)Cc1ccccc1 (centres unmarked) , is 26.6

----------
test system: erythrocytes; assay: Hemolytic activity assay; type: cell-based; settings: rabbit erythrocytes, 10 min, room temperature
Exercise: state measured HC50 for each of the compounds provided.
Give bare numbers, in µg/mL.

Some compounds with known HC50 results, for comparison:
CCCCCCCCCCCCCCNC(=O)C(CCCNC(=N)N)NC(=O)C(N)Cc1c[nH]c2ccccc12 (centres unmarked) [TANHC14] = 16
CCCCCCCCCCCCNC(=O)C(N)Cc1ccccc1 (centres unmarked) [PNHC12] = 20
CCCCCCCCCCNC(=O)C(CCCNC(=N)N)NC(=O)C(N)Cc1ccccc1 (centres unmarked) [PANHC10] = 215
CCCCCCCCCCCCNC(=O)C(CCCNC(=N)N)NC(=O)C(N)Cc1c[nH]c2ccccc12 (centres unmarked) [TANHC12] = 16

Provide HC50 for all items below, preserving their order.
1. CCCCCCCCCCCCCCNC(=O)C(CCCNC(=N)N)NC(=O)C(N)Cc1ccccc1 (centres unmarked) [PANHC14]
2. CCCCCCCCCCCC(=O)NC(CCCNC(=N)N)C(=O)OC (centres unmarked) [C12AM]
3. CCCCCCCCCCNC(=O)C(CCCNC(=N)N)NC(=O)C(N)Cc1c[nH]c2ccccc12 (centres unmarked) [TANHC10]
4. CCCCCCCCCCCCNC(=O)C(CCCNC(=N)N)NC(=O)C(N)Cc1ccccc1 (centres unmarked) [PANHC12]

[A]
1: 20; 2: 109; 3: 74; 4: 26
